Please respond with reported Activation intensity (RLU), PathHunter for every item in the list.
- Experimental system: IGF-1 receptor on the cells of the PathHunter IGF1R Functional Assay (DiscoverX) (UniProt P08069 31-1367)
- Sequence (P08069 31-1367): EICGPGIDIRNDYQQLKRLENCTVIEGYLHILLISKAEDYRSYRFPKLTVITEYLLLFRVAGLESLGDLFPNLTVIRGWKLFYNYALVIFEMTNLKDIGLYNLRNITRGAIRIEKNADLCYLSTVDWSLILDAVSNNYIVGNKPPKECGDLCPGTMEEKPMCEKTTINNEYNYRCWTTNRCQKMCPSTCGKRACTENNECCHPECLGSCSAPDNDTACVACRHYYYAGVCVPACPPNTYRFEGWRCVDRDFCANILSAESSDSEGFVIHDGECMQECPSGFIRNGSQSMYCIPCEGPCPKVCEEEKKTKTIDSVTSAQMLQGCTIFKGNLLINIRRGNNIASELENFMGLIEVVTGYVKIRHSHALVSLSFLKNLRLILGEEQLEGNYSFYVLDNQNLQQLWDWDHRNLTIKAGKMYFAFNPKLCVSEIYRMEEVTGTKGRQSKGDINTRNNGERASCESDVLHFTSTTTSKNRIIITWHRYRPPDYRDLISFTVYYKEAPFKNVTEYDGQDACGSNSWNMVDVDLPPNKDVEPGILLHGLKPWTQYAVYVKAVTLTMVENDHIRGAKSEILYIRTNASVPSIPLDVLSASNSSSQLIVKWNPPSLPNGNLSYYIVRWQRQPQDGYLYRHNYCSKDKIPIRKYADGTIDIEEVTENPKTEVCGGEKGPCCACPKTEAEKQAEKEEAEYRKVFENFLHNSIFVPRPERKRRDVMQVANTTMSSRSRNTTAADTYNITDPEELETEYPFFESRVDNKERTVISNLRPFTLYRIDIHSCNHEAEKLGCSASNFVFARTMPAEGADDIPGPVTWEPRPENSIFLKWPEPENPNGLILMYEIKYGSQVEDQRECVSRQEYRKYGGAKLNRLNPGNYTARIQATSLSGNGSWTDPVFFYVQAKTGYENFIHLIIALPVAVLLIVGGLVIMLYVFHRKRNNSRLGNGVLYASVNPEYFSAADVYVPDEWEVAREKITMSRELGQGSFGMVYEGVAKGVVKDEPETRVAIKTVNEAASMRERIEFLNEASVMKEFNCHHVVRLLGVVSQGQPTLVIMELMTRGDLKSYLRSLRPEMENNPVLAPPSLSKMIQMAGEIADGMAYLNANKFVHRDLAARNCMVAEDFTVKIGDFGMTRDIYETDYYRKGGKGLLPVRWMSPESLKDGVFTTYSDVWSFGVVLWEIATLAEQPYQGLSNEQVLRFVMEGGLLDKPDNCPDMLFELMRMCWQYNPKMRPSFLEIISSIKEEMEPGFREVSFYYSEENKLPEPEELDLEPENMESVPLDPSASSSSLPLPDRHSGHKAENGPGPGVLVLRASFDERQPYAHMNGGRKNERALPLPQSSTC
- Assay summary: cell-based or functional assay
// note: answer is a bare numeric in RLU

Request: I would be grateful if you could share the reported Activation intensity (RLU), PathHunter for FW1_var10_NEKS (antibody, human IgG4, V domains shown) VH: QVQLVQSGAEVKKPGASVKVSCKASGYTFTSYWMHWVRQAPGQGLEWMGETNPSNSVTNYNEKFKSRVTLTVDTSTSTAYMELSSLRSEDTATYYCTIGRGRGFAYWGQGTLVTVSS VL: DIQMTQSPSSVSASVGDRVTITCRASQNINFWLSWYQQKPGKAPKLLIYKASNLHTGVPSRFSGSGSGTDFTLTISSLQPEDFATYYCLQGQSYPYTFGGGTKLEIK .
Response: 1960

Request: I would be grateful if you could share the reported Activation intensity (RLU), PathHunter for mouse parent antibody IGF11-16 (antibody, mouse IgG1, kappa, V domains shown) VH: QIQLQQPGAELVKPGASVKLSCKAPGYTFTSYWMHWVKQRPGQGLEWIGETNPSNSVTNYNEKFKSKATLTVDKSSSTAYMQLSSLTSEDSAVYYCTIGRGRGFAYWGQGTLVTVSA VL: DIQMNQSPSSLSASLGDTITITCRASQNINFWLSWCQQKPGNIPKLLIYKASNLHTGVPSRFSGSGSGTDFTLTISSLQPEDIATYYCLQGQSYPYTFGGGTKLEIKR .
Response: 3570

Request: I would be grateful if you could share the reported Activation intensity (RLU), PathHunter for FW1_var14_NEKS (antibody, human IgG4, V domains shown) VH: QVQLVQSGAEVKKPGASVKVSCKASGYTFTSYWMHWVRQAPGQGLEWMGETNPSNSVTNYNEKFKSRVTLTVDTSTSTAYMELSSLRSEDTATYYCTIGRGRGFAYWGQGTLVTVSS VL: DIQMTQSPSSVSASVGDRVTITCRASQNINFWLSWYQQKPGKAPRLLIYKASNLHTGVPSRFSGSGSGTDFTLTISSLQPEDFATYYCLQGQSYPYTFGGGTKLEIK .
Response: 1740

Request: I would be grateful if you could share the reported Activation intensity (RLU), PathHunter for FW1_var1 antibody (antibody, V domains shown) VH: QVQLVQSGAEVKKPGASVKVSCKASGYTFTSYWMHWVRQAPGQGLEWMGETNPSNSVTNYAQKFQGRVTLTVDTSTSTAYMELSSLRSEDTAVYYCTIGRGRGFAYWGQGTLVTVSS VL: DIQMTQSPSSVSASVGDRVTITCRASQNINFWLSWCQQKPGKIPKLLIYKASNLHTGVPSRFSGSGSGTDFTLTISSLQPEDFATYYCLQGQSYPYTFGGGTKLEIK .
Response: 2270
